Assay: Solubility test in water, methanol and isopropanol
Format: physicochemical
Settings: isopropanol, organic solvent or mixture; read-out: Solubility, Isopropanol
QUANTITY NAME: solubility (mg/mL)
Quick reminder: number only, in mg/mL, skip the unit.

GET /value?item= O=C1Cc2ccccc2C(=C2CCN(CCOP(=O)(O)O)CC2)c2ccsc21 [Compound III-2] &field=solubility returns 24

* * *

Assay: Solubility test in water, methanol and isopropanol
Format: physicochemical
Conditions: isopropanol, organic solvent or mixture, isopropanol; read-out: Solubility, Isopropanol
Provide the reported log10 of solubility of each item.
Hello, just confirming the data are log10 of solubility with units of mg/mL.

Item: OCCCCCN1CCC(=C2c3ccc(Cl)cc3CCc3cccnc32)CC1 [Hydroxypentyl desloratadine, hydroxypentyl desloratadine, reference compound] | log10 of solubility: 1.46

Record summary for OCCCCN1CCC(=C2c3ccc(Cl)cc3CCc3cccnc32)CC1 [Hydroxybutyl desloratadine, hydroxybutyl desloratadine, reference compound] : reported log10 of solubility = 1.45

Please fill in: log10 of solubility reported for `O=C1Cc2ccccc2C(=C2CCN(CCCCCOP(=O)([O-])[O-])CC2)c2ccsc21.[Na+].[Na+]` = 0.00

Entry `O=C1Cc2ccccc2C(=C2CCN(COP(=O)(O)O)CC2)c2ccsc21` ; log10 of solubility = 1.38

Summary for this compound, OCCCCCCN1CCC(=C2c3ccc(Cl)cc3CCc3cccnc32)CC1 [Hydroxyhexyl desloratadine, hydroxyhexyl desloratadine, reference compound] : log10 of solubility is 1.51

Reported log10 of solubility for OCCN1CCC(=C2c3ccc(Cl)cc3CCc3cccnc32)CC1 [Hydroxyethyl desloratadine, hydroxyethyl desloratadine, reference compound] was 1.32

Measured log10 of solubility of `O=C1Cc2ccccc2C(=C2CCN(COP(=O)([O-])[O-])CC2)c2ccsc21.[Na+].[Na+]` : 0.00
